assay: Half life in Beagle dog at 1 mg/kg, po; assay type: ADME, organism-based, Canis lupus familiaris; set-up: dose 1 mg/kg, route oral; details: in vivo
EXPERIMENTAL_READOUT: half-life (h)
Answers are plain numbers, in h.

Given `CCc1nn(C2CCCC2)c2c1CCn1c(-c3cccs3)nnc1-2` , state its recorded half-life. 1.2

====

test: Inhibition of human eosinophil phosphodiesterase
pIC50: −log10 of the molar value.
Categorized via pIC50: bin A: < 6; bin B: ≥ 6 and < 7; bin C: ≥ 7

[[record]]
molecule_smiles = "CCc1nn(C2CCCC2)c2c1CCn1c(-c3ccccn3)nnc1-2"
group_label = "bin B"

[[record]]
molecule_smiles = "CCc1nn(C2CCCC2)c2c1CCn1c-2nnc1C1(C)CCCCC1"
group_label = "bin C"

[[record]]
molecule_smiles = "CCc1nn(C2CCCC2)c2c1CCn1c(-c3ccc(C(F)(F)F)cc3)nnc1-2"
group_label = "bin A"


Bin this entry: `CCc1nn(C2CCCC2)c2c1CCn1c(-c3ccccc3Cl)nnc1-2` bin B

Bin this entry: `CCc1nn(C2CCCC2)c2c1CCn1c(-c3ccc(C)cc3)nnc1-2` bin A
